# TARGET UNDER TEST: human 5-HT1A receptor (Homo sapiens (Human), UniProt P08908)
# Sequence (P08908 whole entry): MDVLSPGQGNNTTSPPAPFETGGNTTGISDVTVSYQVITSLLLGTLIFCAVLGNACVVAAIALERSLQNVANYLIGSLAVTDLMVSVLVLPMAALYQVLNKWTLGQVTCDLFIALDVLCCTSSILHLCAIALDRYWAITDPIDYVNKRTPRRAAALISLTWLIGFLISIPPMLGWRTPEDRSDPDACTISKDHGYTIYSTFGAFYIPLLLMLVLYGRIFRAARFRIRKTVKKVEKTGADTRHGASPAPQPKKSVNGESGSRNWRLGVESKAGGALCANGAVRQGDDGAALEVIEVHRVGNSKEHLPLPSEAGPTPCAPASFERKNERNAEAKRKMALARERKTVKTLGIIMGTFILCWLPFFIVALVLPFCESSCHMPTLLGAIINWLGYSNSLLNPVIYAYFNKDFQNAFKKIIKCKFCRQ
pKi: −log10 of the molar value.
Returns one of class 1 or class 0; class 1 when pKi is >= 8.

O=C1c2cn[nH]c2CCCN1CCN1CCC(c2noc3ccccc23)CC1    class 0
Cn1ncc2c1CCC(CCN1CCN(c3nsc4ccccc34)CC1)C2=O (stereo not drawn)    class 1
Cc1cccc2c(C3CCN(CCN4CCc5cccnc5C4=O)CC3)noc12    class 0
O=C1c2cccnc2CCN1CCN1CCC(c2noc3ccccc23)CC1    class 0
Cc1nccc2c1C(=O)N(CCN1CCN(c3noc4ccccc34)CC1)CC2    class 0
Cc1ncc2c(=O)n(CCN3CCN(c4noc5ccccc45)CC3)ccc2n1    class 0
Cn1ncc2c1C(=O)N(CCN1CCN(c3nsc4ccccc34)CC1)CC2    class 1
CC(C)c1ncc2c(=O)n(CCN3CCN(c4nsc5ccccc45)CC3)ccc2n1    class 0

// next entry
IN: Quick check, pKi >= 8? O=C1c2ncccc2CCC1CCN1CCN(c2noc3cc(F)ccc23)CC1 (stereo not drawn)
OUT: class 0

----------
# EXPERIMENT SUMMARY: Test 5: predictive test of human half-life (monkey distribution volume, serum unbound fraction, microsomal stability)
# Format: in vivo
# CONDITION INFO: predicted from cynomolgus monkey distribution volume (i.v.), serum unbound fraction and human hepatic microsome stability
Recorded half-life, one value per entry.

Known results for molecules:
Cc1ncc2c(n1)CCN(CCN1CCC(c3noc4ccccc34)CC1)C2=O    > 23 h
Cn1ccc2c1CCCN(CCN1CCC(c3noc4ccccc34)CC1)C2=O    > 45 h

API: the following record is the query input.
IN: Bench note: what half-life did Cc1cc2c(cn1)C(=O)N(CCN1CCN(c3noc4ccccc34)CC1)CC2 show?
OUT: > 30 h

----------
# EXPERIMENT SUMMARY: Test 4: metabolic stability test in human hepatic microsome
# Assay type: in vitro ADME
# CONDITION INFO: 0.1 mg/mL microsome, 0.1 μmol/L compound, 37° C., 30 minutes
Returns one of Condition met or Condition not met; Condition met when Metabolic stability in human hepatic microsome is >= 0.08 mL/min/mg protein.

Consider the worked cases shown below.
Cn1cnc2c1C(=O)N(CCN1CCN(c3nsc4ccccc34)CC1)CC2    Condition met
CC1(CCN2CCN(c3noc4ccccc34)CC2)CCc2cccnc2C1=O (stereo not drawn)    Condition met
O=c1c2ncccc2ccn1CCN1CCC(c2noc3cc(F)ccc23)CC1    Condition not met
O=C1c2cn[nH]c2CCN1CCN1CCC(c2noc3ccccc23)CC1    Condition not met
O=C1c2ncoc2CCN1CCN1CCC(c2noc3ccccc23)CC1    Condition not met
Cc1cc2c(cn1)C(=O)N(CCN1CCN(c3noc4ccccc34)CC1)CC21CC1    Condition met
O=C1c2ncccc2CCN1CCN1CCC(c2nsc3ccccc23)CC1    Condition not met
Cc1cc2c(C3CCN(CCN4CCc5cccnc5C4=O)CC3)noc2cc1F    Condition not met

IN: Quick check, Metabolic stability in human hepatic microsome >= 0.08 mL/min/mg protein? Cn1cc2c(n1)C(=O)N(CCN1CCC(c3noc4ccccc34)CC1)CCC2
OUT: Condition not met

IN: Quick check, Metabolic stability in human hepatic microsome >= 0.08 mL/min/mg protein? Cn1ncc2c1C(=O)N(CCN1CCN(c3nsc4ccccc34)CC1)CCC2
OUT: Condition met

IN: Quick check, Metabolic stability in human hepatic microsome >= 0.08 mL/min/mg protein? O=C1c2oc(C3CC3)nc2CCN1CCN1CCC(c2noc3ccccc23)CC1
OUT: Condition not met

IN: Quick check, Metabolic stability in human hepatic microsome >= 0.08 mL/min/mg protein? O=c1c2cncnc2ccn1CCN1CCC(c2noc3ccccc23)CC1
OUT: Condition met
